Below, each entry is listed alongside its reported solubility at 24 h.
test: Solubility testing; format: physicochemical; settings: buffer, pH 4.5, aqueous buffer, kinetic from dmso stock, pH 4.5; read-out: Solubility pH 4.5
recorded metric: solubility at 24 h (µg/mL)

compound	result comparator	recorded value
O=c1nc2n(C3CCCC3)c3ccccc3n2c2cccc(Br)c12	<	1
Cc1ncsc1-c1ccc([C@H](CCCCCN2CCC(c3ccc4c(c3)n(C3CCCC3)c3nc(=O)c5c(Br)cccc5n43)CC2)NC(=O)[C@@H]2C[C@@H](O)CN2C(=O)[C@@H](NC(=O)C2(F)CC2)C(C)(C)C)cc1	<	1
Cc1ncsc1-c1ccc([C@H](COCCN2CCC(c3ccc4c(c3)n(C3CCCC3)c3nc(=O)c5c(Br)cccc5n43)CC2)NC(=O)[C@@H]2C[C@@H](O)CN2C(=O)[C@@H](NC(=O)C2(N(C)C)CC2)C(C)(C)C)cc1	=	200
Cc1ncsc1-c1ccc([C@H](COC(C)CN2CCC(c3ccc4c(c3)n(C3CCCC3)c3nc(=O)c5c(Br)cccc5n43)CC2)NC(=O)[C@@H]2C[C@@H](O)CN2C(=O)[C@@H](NC(=O)C2(N(C)C)CC2)C(C)(C)C)cc1 (stereo partly shown)	=	210
CN1CCC(c2ccc3c(c2)n(C2CCCC2)c2nc(=O)c4c(Br)cccc4n32)CC1	>	110
Cc1ncsc1-c1ccc([C@H](COC(C)CN2CCC(c3ccc4c(c3)n(C3CCCC3)c3nc(=O)c5c(Br)cccc5n43)CC2)NC(=O)[C@@H]2C[C@@H](O)CN2C(=O)[C@@H](NC(=O)C2(F)CC2)C(C)(C)C)cc1 (stereo partly shown)	=	14
O=c1nc2n(C3CCCC3)c3cc(C4CCNCC4)ccc3n2c2cccc(Br)c12	=	85
Nc1cccc2c1c(=O)nc1n(C3CCCC3)c3ccccc3n21	<	1
Cc1ncsc1-c1ccc([C@H](CC[C@H](C)CCN2CCC(c3ccc4c(c3)n(C3CCCC3)c3nc(=O)c5c(Br)cccc5n43)CC2)NC(=O)[C@@H]2C[C@H](O)CN2C(=O)[C@@H](NC(=O)C2(F)CC2)C(C)(C)C)cc1	<	1
Cc1ncsc1-c1ccc(C(CCC(C)CCN2CCC(c3ccc4c(c3)n(C3CCCC3)c3nc(=O)c5c(Br)cccc5n43)CC2)NC(=O)C2CC(O)CN2C(=O)C(NC(=O)C2(F)CC2)C(C)(C)C)cc1 (stereo not shown)	<	1
